Molecular target: GHS-R (Homo sapiens)
Sequence (Q92847 whole entry, species assumed): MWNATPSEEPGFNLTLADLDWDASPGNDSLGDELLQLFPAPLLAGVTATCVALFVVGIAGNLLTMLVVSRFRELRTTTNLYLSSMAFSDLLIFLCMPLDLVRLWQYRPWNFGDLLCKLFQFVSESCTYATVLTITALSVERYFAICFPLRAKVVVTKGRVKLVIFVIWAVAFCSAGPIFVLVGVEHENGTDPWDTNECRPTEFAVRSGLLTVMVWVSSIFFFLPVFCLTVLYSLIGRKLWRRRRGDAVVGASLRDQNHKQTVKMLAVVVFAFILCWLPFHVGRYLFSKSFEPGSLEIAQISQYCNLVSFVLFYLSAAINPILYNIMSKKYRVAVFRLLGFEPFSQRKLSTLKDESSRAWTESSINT
Test: GHS-R antagonist activity (Ki) in a cell based assay
// reported Ki for each item listed

# annotated cases, reported Ki shown
CCN(CC)CCCS(=O)(=O)N[C@H](CCc1ccccc1)c1nc(Cc2ccc(Br)cc2)no1: < 100 nM
CCN(CC)CCCS(=O)(=O)N[C@@H](C)c1nc(-c2ccc(OC)cc2)no1: 100 to 500 nM
CCN(CC)CCCS(=O)(=O)NCc1nc(-c2ccc(OC)cc2)no1: 500 to 1000 nM
CCN(CC)CCCS(=O)(=O)N1CCC[C@@H]1c1nc(-c2ccc(OC)cc2)no1: 100 to 500 nM
CCN(CC)CCCS(=O)(=O)N[C@H](CCc1ccccc1)c1nc(-c2cccc(F)c2)n[nH]1: < 100 nM

-- ask Item CCN(CC)CCCS(=O)(=O)N[C@H](CCc1ccccc1)c1nc(-c2c(C)cccc2Cl)no1 has what recorded Ki?
-- reply 100 to 500 nM

-- ask Item CCN(CC)CCS(=O)(=O)N[C@H](CCc1ccccc1)c1nc(-c2ccccc2C)no1 has what recorded Ki?
-- reply 500 to 1000 nM

-- ask Item CCN(CC)CCCS(=O)(=O)N[C@H](CCc1ccccc1)c1nc(Cc2cccc(OC)c2)no1 has what recorded Ki?
-- reply < 100 nM
